Attribution: paper PMC12209991

experiment_description: Single ascending dose (SAD) pharmacokinetics in healthy volunteers
Format: in vivo, human
reported_conditions: human, plasma, po, 1000 mg, single oral dose 1000 mg, plasma; read-out: AUCinf, mean (SD)
measurement_label: AUC(0-inf)
Form field: result (number plus unit)

QUERY: GET /values?readout=AUC(0-inf)&item= CC(=O)N1CCC(COc2cc(F)c3c(=O)[nH]c(CSC4CCOCC4)nc3c2)CC1
RESULT: 17.7 µg·h/mL

---

experiment_description: Food effect (high-fat breakfast) on RBN-3143 pharmacokinetics, cross-over
Type: in vivo, human
reported_conditions: human, plasma, po, 500 mg, single 500 mg oral dose, fed (high-fat breakfast), N=13, linear mixed-effects model; read-out: AUClast, GLSM
measurement_label: AUC(0-t)

QUERY: GET /values?readout=AUC(0-t)&item= CC(=O)N1CCC(COc2cc(F)c3c(=O)[nH]c(CSC4CCOCC4)nc3c2)CC1
RESULT: 18700 ng·h/mL

---

experiment_description: Food effect (high-fat breakfast) on RBN-3143 pharmacokinetics, cross-over
Assay type: in vivo, human
reported_conditions: human, plasma, po, 500 mg, single 500 mg oral dose, fed (high-fat breakfast), N=13; read-out: AUCinf, geometric mean (Geo CV%)
measurement_label: AUC(0-inf)

QUERY: GET /values?readout=AUC(0-inf)&item= CC(=O)N1CCC(COc2cc(F)c3c(=O)[nH]c(CSC4CCOCC4)nc3c2)CC1
RESULT: 18800 ng·h/mL

---

experiment_description: Multiple ascending dose (MAD) pharmacokinetics in healthy volunteers, BID for 14 days
Format: in vivo, human
reported_conditions: human, plasma, oral, 500 mg, 500 mg BID, Day 1, plasma; read-out: Cmax, geometric mean (Geo CV%)
measurement_label: Cmax (ng/mL)
Form entry: value (ng/mL) — number only.

QUERY: GET /values?readout=Cmax&item= CC(=O)N1CCC(COc2cc(F)c3c(=O)[nH]c(CSC4CCOCC4)nc3c2)CC1
RESULT: 1270

---

experiment_description: Food effect (high-fat breakfast) on RBN-3143 pharmacokinetics, cross-over
Format: in vivo, human
reported_conditions: human, plasma, po, 500 mg, single 500 mg oral dose, fed (high-fat breakfast), N=13; read-out: Cmax, mean (SD)
measurement_label: Cmax
Form field: result (number plus unit)

QUERY: GET /values?readout=Cmax&item= CC(=O)N1CCC(COc2cc(F)c3c(=O)[nH]c(CSC4CCOCC4)nc3c2)CC1 [RBN‐3143]
RESULT: 2780 ng/mL

---

experiment_description: Multiple ascending dose (MAD) pharmacokinetics in healthy volunteers, BID for 14 days
Assay type: in vivo, human
reported_conditions: human, plasma, oral, 500 mg, 500 mg BID, Day 14, plasma; read-out: Tmax, median [min-max]
measurement_label: Tmax (h)
Form entry: value (h) — number only.

QUERY: GET /values?readout=Tmax&item= CC(=O)N1CCC(COc2cc(F)c3c(=O)[nH]c(CSC4CCOCC4)nc3c2)CC1
RESULT: 1.5

---

experiment_description: Multiple ascending dose (MAD) pharmacokinetics in healthy volunteers, BID for 14 days
Assay type: in vivo, human
reported_conditions: human, plasma, oral, 300 mg, 300 mg BID, Day 14, plasma; read-out: Tmax, median [min-max]
Procedure: Analytes were separated by HPLC on a Waters Atlantis T3 analytical column using a gradient mobile phase (mobile phase A: 10% acetonitrile, 90% water, 10 mM ammonium acetate, 0.3% formic acid; mobile phase B: 90% acetonitrile, 10% water, 10 mM ammonium acetate, 0.3% formic acid) run at 0.4 mL/min with initial mobile phase B concentration of 30%.
measurement_label: Tmax (h)
Form entry: value (h) — number only.

QUERY: GET /values?readout=Tmax&item= CC(=O)N1CCC(COc2cc(F)c3c(=O)[nH]c(CSC4CCOCC4)nc3c2)CC1 [RBN‐3143]
RESULT: 2
